- Tested on: COLO 205 colon
- Protocol description: NCI tumour cell line growth inhibition, 48 h; in the data active means GI50 below about 0.43 µM; inactive means the rest
// classify into active, inactive

Example cases with answers are listed next.
Query: recorded result category for `COc1cccc(N2C(=N)/C(=C3\Nc4ccccc4S3)CC2=O)c1` in this test
inactive

Call for entry CC(=O)NC(CCc1ccc(Cl)c(Cl)c1)c1cccc(O)c(=O)c1 (stereo not given) :
active

Field: outcome | Entry: `CC(C)(Oc1cccc(N2CCC[C@@H](C(=O)N(Cc3ccc(-c4cn[nH]c4)cc3)C3CC3)C2)c1)C(=O)N1CCNCC1`
inactive

What was the test verdict on `COc1ccc(/C=C/C(=O)C(=O)/C=C/c2ccc(OC)c(OC)c2)cc1OC` ?
inactive

Then this compound:
Hi, do you know how `CN1C(=O)[C@@H](CC2CCCC2)N(C2CCCC2)c2nc(Nc3cc(Cl)c(O)c(Cl)c3)ncc21` came out in this test?
inactive

---

# reported GI50; entries follow
- Test system: ACHN renal
- Protocol description: NCI tumour cell line growth inhibition, 48 h

Use these answered entries as a reference point.
Look at this molecule and give its reported GI50. `O=C1NC(=NCCc2ccccc2F)S/C1=C\c1ccc2ncccc2c1`
9.06 µM

I am curious: what GI50 value has been reported for `O=C(NNC1=NS(=O)(=O)c2ccccc2N1c1ccccc1)c1cnccn1` ?
> 100 µM

What value of measured GI50 is listed for `CCCCNC(=O)CC1=C(C)/C(=C/c2[nH]c(-c3ccc[nH]3)cc2OC)N=C1C` ?
2.26 µM

Entry under review: Fc1ccc(C2CC(c3cccc(Nc4ccncc4)c3)=NN2c2ccccc2)cc1 (stereo not given) . Reported GI50?
1.71 µM

So what's the measured GI50 for this one? `O=C(Nc1nc2ccc(OC(F)(F)F)cc2s1)c1ccc(F)cc1`
2.4 µM

Value lookup for GI50; key = `CN1CCC(=C(c2ccc(Cl)cc2)c2ccccn2)CC1`
> 100 µM

GI50 for `Cn1cc(Nc2nccc(-c3ccc4c(c3)CN(C3COC3)CC[C@H]4NC(=O)c3cn(C(C)(C)C)nn3)n2)cn1` ?
66.3 µM

Give the measured GI50 of `Cn1ccc(S(=O)(=O)N2CCC[C@H](Nc3nccc(-c4c(-c5cccc(O)c5)nc5occn45)n3)C2)n1` .
7.19 µM

Reported GI50 for CC(=O)CCC[C@@H](C)[C@@H]1O[C@H]([C@@]2(C)CCC(=O)O2)CC2[C@H]1OC(=O)C21CC1 (stereo not given in full) : what is it?
> 100 µM

Consider now this further molecule.
// lookup GI50 for N#Cc1c(-c2ccccc2)nc(SCC(O)CN2CCOCC2)nc1N1CCOCC1 (stereo not given)
10.8 µM

---

Entries and their TGI
- System: MALME-3M melanoma
- Protocol description: NCI tumour cell line growth inhibition, 48 h
// return numeric value only (unit: µM, not printed)

For `CC(C)N(CCNc1nc(C(Cl)(Cl)Cl)nc2cc(Cl)ccc12)C(C)C` , what is its reported TGI?
3.98

Could you share which TGI value was measured for `N=C1C(c2nc3ccccc3c(=O)[nH]2)=C(O)CN1c1cccc(Cl)c1` ?
10.7

Which TGI reading was recorded for the molecule CC(O)C1(O)C(O)CC(OC2c3cc4c(c(O)c3[C@@H]3C[C@@]2(C)OC32C=c3cc[nH]c3=N2)C(=O)c2cccc(O)c2C4=O)OC1C (some centres not stated) ?
2.15

What TGI value was documented for this molecule, `Cc1cc(N(C)c2ccccc2)nc(N(C)c2ccccc2)n1` ?
55.8

Returns the measured TGI for the input molecule. Input: `O=C(Nc1nc2ccc(OC(F)(F)F)cc2s1)c1ccc(F)cc1`
8.06

Next:
# input molecule: COC(=O)C1=C(C)NC(CF)=C(C(=O)OC)C1c1cccc2c(=O)c3ccccc3oc12 (configuration not stated) ; wanted: its TGI
83.6

Given the entry `CC(C)(Oc1cccc(N2CCC[C@@H](C(=O)N(Cc3ccc(-c4cn[nH]c4)cc3)C3CC3)C2)c1)C(=O)N1CCNCC1` , report its measured TGI.
24.5

TGI for `C=C(Cl)[C@](Cl)(CBr)CC[C@@H](Br)C(C)(C)Cl` ?
24.2

Recorded TGI for `O=C1C=C(Nc2cc(Cl)ccc2Cl)c2ccccc2C1=O` , please?
39.4

Which TGI value is on record for `CC(=O)[CH-]C(=O)c1ccccc1.CC(=O)[CH-]C(=O)c1ccccc1.CC(=O)[CH-]C(=O)c1ccccc1.[Cl-].[Hf+4]` ?
39.8

Any idea what TGI was measured for `C=CCc1cc(OC)c(O)c(C(=O)/C=C/c2ccc(OC)c(OC)c2)c1` ?
37

Entry `CCN(CC)Cc1cc(Nc2ccnc3ccc(OC)cc23)ccc1O` has what TGI?
15.7

GET /values?readout=TGI&item= `CCN(CC)CCOc1ccc2c(-c3ccccc3)c(-c3ccc(OC)cc3)c(=O)oc2c1`
3.08

Item `CC(C)(C)c1cc(Cc2ccc(S(C)(=O)=O)cc2)c(O)c(C(C)(C)C)c1` has what recorded TGI?
32.7

# query: TGI of entry `CCN(CC)CCC(=O)c1ccc(Cl)c(Cl)c1`
41.7

Taken from PubChem BioAssay (NCI).
